Measurement protocol: Octanol/water partition co-efficient, log P of the compound
Assay type: physicochemical
Hi, to clarify the labels: Yes covers logP from 4 upward, No covers anything below 4.

Substance smiles	Category
COc1cccc(CN2CCN(C[C@@]3(O)CC[C@@]4(C)[C@@H](CC[C@@H]5[C@@H]4CC[C@@]4(C)[C@H]5CCC4(F)F)C3)CC2)c1	Yes
COc1cccc(CN2CCN(C[C@@]3(O)CC[C@@]4(C)[C@@H](CC[C@@H]5[C@@H]4CC[C@@]4(C)[C@H]5CC[C@]4(C)O)C3)CC2)c1	Yes
CCN(C)S(=O)(=O)N1CCN(C[C@@]2(O)CC[C@@]3(C)[C@@H](CC[C@@H]4[C@@H]3CC[C@]3(C)C(=O)CC[C@@H]43)C2)CC1	No
COc1cccc(CN2CCN(C[C@@]3(O)CC[C@@]4(C)[C@@H](CC[C@@H]5[C@@H]4CC[C@]4(C)C(=O)CC[C@@H]54)C3)CC2)c1	Yes
CN(C)S(=O)(=O)c1ccc(NC(=S)N2CCN(C[C@@]3(O)CC[C@@]4(C)[C@@H](CC[C@@H]5[C@@H]4CC[C@]4(C)C(=O)CC[C@@H]54)C3)CC2)cc1	No

* * *

Target system: 3-hydroxyacyl-CoA dehydrogenase type-2 (Mus musculus) (UniProt O08756)
Measurement protocol: Inhibition of recombinant mouse full-length 17beta-HSD10 (2 to 261 residues) assessed as reduction in transformation of [3H]-ALLOP to 5alpha-DHP at 100 uM after 48 hrs in presence of 1 mM NAD+ cofactor by liquid scintillation counting method relative to control
Label scheme, based on inhibition: band A: < 10%; band B: ≥ 10% and < 20%; band C: ≥ 20%

Substance smiles	Category
COc1cccc(CN2CCN(C[C@@]3(O)CC[C@@]4(C)[C@@H](CC[C@@H]5[C@@H]4CC[C@]4(C)[C@H](O)CC[C@@H]54)C3)CC2)c1	band C
COc1cc(CN2CCN(C[C@@]3(O)CC[C@@]4(C)[C@@H](CC[C@@H]5[C@@H]4CC[C@]4(C)C(=O)CC[C@@H]54)C3)CC2)ccc1C	band B
C[C@]12CC[C@](O)(CN3CCN(Cc4cnc5ccccc5c4)CC3)C[C@@H]1CC[C@@H]1[C@@H]2CC[C@]2(C)C(=O)CC[C@@H]12	band B
COc1cccc(CN2CCN(C[C@@]3(O)CC[C@@]4(C)[C@@H](CC[C@@H]5[C@@H]4CC[C@]4(C)C(=O)CC[C@@H]54)C3)CC2)c1	band B
CCN(C)S(=O)(=O)N1CCN(C[C@@]2(O)CC[C@@]3(C)[C@@H](CC[C@@H]4[C@@H]3CC[C@]3(C)C(=O)CC[C@@H]43)C2)CC1	band A
COc1cccc(CN2CCN(C[C@@]3(O)CC[C@@]4(C)[C@@H](CC[C@@H]5[C@@H]4CC[C@@]4(C)[C@H]5CC[C@]4(C)O)C3)CC2)c1	band C
COc1cccc(CN2CCN(C[C@@]3(O)CC[C@@]4(C)[C@@H](CC[C@@H]5[C@@H]4CC[C@]4(C)[C@@H](O)CC[C@@H]54)C3)CC2)c1	band A
Cc1cc(C)cc(C(=O)N2CCN(C[C@@]3(O)CC[C@@]4(C)[C@@H](CC[C@@H]5[C@@H]4CC[C@]4(C)C(=O)CC[C@@H]54)C3)CC2)c1	band A
CN(C)S(=O)(=O)c1ccc(NC(=S)N2CCN(C[C@@]3(O)CC[C@@]4(C)[C@@H](CC[C@@H]5[C@@H]4CC[C@]4(C)C(=O)CC[C@@H]54)C3)CC2)cc1	band B
C[C@]12CC[C@](O)(CN3CCN(C(=O)c4ccc(-c5ccccc5)cc4)CC3)C[C@@H]1CC[C@@H]1[C@@H]2CC[C@]2(C)C(=O)CC[C@@H]12	band B
COc1cccc(CN2CCN(C[C@@]3(O)CC[C@@]4(C)[C@@H](CC[C@@H]5[C@@H]4CC[C@@]4(C)[C@H]5CCC4(F)F)C3)CC2)c1	band C
C[C@]12CC[C@](O)(CN3CCN(C(=O)c4ccc(C(=O)c5ccccc5)cc4)CC3)C[C@@H]1CC[C@@H]1[C@@H]2CC[C@]2(C)C(=O)CC[C@@H]12	band A
CC(=O)c1cccc(C(=O)N2CCN(C[C@@]3(O)CC[C@@]4(C)[C@@H](CC[C@@H]5[C@@H]4CC[C@]4(C)C(=O)CC[C@@H]54)C3)CC2)c1	band A
COc1cccc(CN2CCN(C[C@@]3(O)CC[C@@]4(C)[C@@H](CC[C@@H]5[C@@H]4CC[C@]4(C)C(=O)C(C)(C)C[C@@H]54)C3)CC2)c1	band B
C[C@]12CC[C@](O)(CN3CCN(C(=S)NCc4cccc(C(F)(F)F)c4)CC3)C[C@@H]1CC[C@@H]1[C@@H]2CC[C@]2(C)C(=O)CC[C@@H]12	band C

* * *

Measurement protocol: Octanol/water partition co-efficient, log P of the compound
Format: physicochemical
Measured logP, listed per entry for reference.

Substance smiles	logP
C#C[C@]1(O)CC[C@H]2[C@@H]3CC[C@H]4C[C@@](O)(CN5CCN(Cc6cccc(OC)c6)CC5)CC[C@]4(C)[C@H]3CC[C@@]21C	4.93
COc1cccc(CN2CCN(C[C@@]3(O)CC[C@@]4(C)[C@@H](CC[C@@H]5[C@@H]4CC[C@]4(C)[C@@H](O)CC[C@@H]54)C3)CC2)c1	4.67
C[C@]12CC[C@](O)(CN3CCN(C(=O)c4ccc(-c5ccccc5)cc4)CC3)C[C@@H]1CC[C@@H]1[C@@H]2CC[C@]2(C)C(=O)CC[C@@H]12	5.3
C[C@]12CC[C@](O)(CN3CCN(C(=S)NCc4cccc(C(F)(F)F)c4)CC3)C[C@@H]1CC[C@@H]1[C@@H]2CC[C@]2(C)C(=O)CC[C@@H]12	3.85
COc1cc(CN2CCN(C[C@@]3(O)CC[C@@]4(C)[C@@H](CC[C@@H]5[C@@H]4CC[C@]4(C)C(=O)CC[C@@H]54)C3)CC2)ccc1C	4.72
COc1cccc(CN2CCN(C[C@@]3(O)CC[C@@]4(C)[C@@H](CC[C@@H]5[C@@H]4CC[C@]4(C)C(=O)C(C)(C)C[C@@H]54)C3)CC2)c1	5.57
COc1cccc(CN2CCN(C[C@@]3(O)CC[C@@]4(C)[C@@H](CC[C@@H]5[C@@H]4CC[C@]4(C)[C@H](O)CC[C@@H]54)C3)CC2)c1	4.67
CC(=O)c1cccc(C(=O)N2CCN(C[C@@]3(O)CC[C@@]4(C)[C@@H](CC[C@@H]5[C@@H]4CC[C@]4(C)C(=O)CC[C@@H]54)C3)CC2)c1	3.85
C[C@]12CC[C@](O)(CN3CCN(Cc4cnc5ccccc5c4)CC3)C[C@@H]1CC[C@@H]1[C@@H]2CC[C@]2(C)C(=O)CC[C@@H]12	4.58
C[C@]12CC[C@](O)(CN3CCN(C(=O)c4ccc(C(=O)c5ccccc5)cc4)CC3)C[C@@H]1CC[C@@H]1[C@@H]2CC[C@]2(C)C(=O)CC[C@@H]12	4.99
Cc1cc(C)cc(C(=O)N2CCN(C[C@@]3(O)CC[C@@]4(C)[C@@H](CC[C@@H]5[C@@H]4CC[C@]4(C)C(=O)CC[C@@H]54)C3)CC2)c1	4.86

* * *

Target system: 3-hydroxyacyl-CoA dehydrogenase type-2 (Mus musculus) (UniProt O08756)
Sequence (whole entry): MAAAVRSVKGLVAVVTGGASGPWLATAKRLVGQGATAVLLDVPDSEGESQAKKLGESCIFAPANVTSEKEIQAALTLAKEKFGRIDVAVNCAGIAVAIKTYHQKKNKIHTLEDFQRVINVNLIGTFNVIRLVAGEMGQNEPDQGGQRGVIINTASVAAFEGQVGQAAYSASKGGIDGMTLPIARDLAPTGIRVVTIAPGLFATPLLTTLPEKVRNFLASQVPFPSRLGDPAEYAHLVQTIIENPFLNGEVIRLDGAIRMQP
Measurement protocol: Inhibition of recombinant mouse full-length 17beta-HSD10 (2 to 261 residues) assessed as reduction in transformation of [14C]-E2 to E1 at 300 uM after 48 hrs in presence of 1 mM NAD+ cofactor by liquid scintillation counting method relative to control
Attribute measured: inhibition (%)

Substance smiles	Unit spec	Observed result
C[C@]12CC[C@](O)(CN3CCN(C(=O)c4ccc(C(=O)c5ccccc5)cc4)CC3)C[C@@H]1CC[C@@H]1[C@@H]2CC[C@]2(C)C(=O)CC[C@@H]12	%	58.8
COc1cccc(CN2CCN(C[C@@]3(O)CC[C@@]4(C)[C@@H](CC[C@@H]5[C@@H]4CC[C@@]4(C)[C@H]5CC[C@]4(C)O)C3)CC2)c1	%	22.6
CCN(C)S(=O)(=O)N1CCN(C[C@@]2(O)CC[C@@]3(C)[C@@H](CC[C@@H]4[C@@H]3CC[C@]3(C)C(=O)CC[C@@H]43)C2)CC1	%	10.2
C[C@]12CC[C@](O)(CN3CCN(C(=O)c4ccc(-c5ccccc5)cc4)CC3)C[C@@H]1CC[C@@H]1[C@@H]2CC[C@]2(C)C(=O)CC[C@@H]12	%	29.4
C[C@]12CC[C@](O)(CN3CCN(Cc4cnc5ccccc5c4)CC3)C[C@@H]1CC[C@@H]1[C@@H]2CC[C@]2(C)C(=O)CC[C@@H]12	%	36.1
C#C[C@]1(O)CC[C@H]2[C@@H]3CC[C@H]4C[C@@](O)(CN5CCN(Cc6cccc(OC)c6)CC5)CC[C@]4(C)[C@H]3CC[C@@]21C	%	44.5
